reverse-splicing fitness listing for selected variants.
B1: Azoarcus group I ribozyme (parent)
chain: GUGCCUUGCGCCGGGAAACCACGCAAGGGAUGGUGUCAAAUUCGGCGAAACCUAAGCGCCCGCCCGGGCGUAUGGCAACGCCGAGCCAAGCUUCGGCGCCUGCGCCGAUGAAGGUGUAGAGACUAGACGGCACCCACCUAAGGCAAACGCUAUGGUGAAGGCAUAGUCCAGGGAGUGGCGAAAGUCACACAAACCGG

Variants of: B1
Test: reverse-splicing fitness (ratio to wild type); higher = more active; in vitro selection; Mg2+ level not given
reported-metric: reverse-splicing fitness

>>> test_value("A120G C150A U176G")
0.0094
>>> test_value("C82G A111C A120C A145G C150U C169G U176A")
0.0122
>>> test_value("A111G A145U C150U C169G U176A")
0.0215
>>> test_value("A111U A120U A145U C150U C169U")
0.0433
>>> test_value("C82G A111G A145G C150A C169A")
0.011
>>> test_value("C82U A145C C150U C169A")
0.00695
>>> test_value("C82A A120U A145U C150A C169U U176A")
0.00228
>>> test_value("C82A A120G A145U C150G C169G U176G")
0.00378
>>> test_value("C82A A111U A120C A145U C150A C169G U176A")
0.0219
>>> test_value("C82A A111G A120U C150G C169U U176A")
0.00322
>>> test_value("C82U A111C A120G A145G C150G C169A")
0.0087
